Species: Homo sapiens
Experiment: Fraction unbound in human plasma

smiles-structure: O=C(Nc1ccc(S(=O)(=O)Nc2ccccc2Cl)cc1)c1nccs1
fraction unbound: 0.001
//
smiles-structure: COc1ccccc1NS(=O)(=O)c1ccc(NC(=O)c2ccccn2)cc1OC
fraction unbound: 0.003
//
smiles-structure: CN(c1ccccc1Cl)S(=O)(=O)c1ccc(NC(=O)c2nccs2)cc1
fraction unbound: 0.005
//
smiles-structure: Cc1cc(C)c(NS(=O)(=O)c2ccc(NC(=O)c3ccccn3)cc2)c(C)c1
fraction unbound: 0.001
//
smiles-structure: Cc1cc(C)c(NS(=O)(=O)c2ccc(NC(=O)c3ccco3)cc2)c(C)c1
fraction unbound: 0.022
//
smiles-structure: O=C(Nc1ccc(S(=O)(=O)Nc2ccccc2Cl)cc1)c1ccccn1
fraction unbound: 0.001
//
smiles-structure: CN(c1ccccc1Cl)S(=O)(=O)c1ccc(NC(=O)c2ccncn2)cc1
fraction unbound: 0.017

* * *

Listed below: Emax values for each entry.
Target: Metabotropic glutamate receptor 4 (Homo sapiens, UniProt Q14833)
Sequence (Q14833 whole entry): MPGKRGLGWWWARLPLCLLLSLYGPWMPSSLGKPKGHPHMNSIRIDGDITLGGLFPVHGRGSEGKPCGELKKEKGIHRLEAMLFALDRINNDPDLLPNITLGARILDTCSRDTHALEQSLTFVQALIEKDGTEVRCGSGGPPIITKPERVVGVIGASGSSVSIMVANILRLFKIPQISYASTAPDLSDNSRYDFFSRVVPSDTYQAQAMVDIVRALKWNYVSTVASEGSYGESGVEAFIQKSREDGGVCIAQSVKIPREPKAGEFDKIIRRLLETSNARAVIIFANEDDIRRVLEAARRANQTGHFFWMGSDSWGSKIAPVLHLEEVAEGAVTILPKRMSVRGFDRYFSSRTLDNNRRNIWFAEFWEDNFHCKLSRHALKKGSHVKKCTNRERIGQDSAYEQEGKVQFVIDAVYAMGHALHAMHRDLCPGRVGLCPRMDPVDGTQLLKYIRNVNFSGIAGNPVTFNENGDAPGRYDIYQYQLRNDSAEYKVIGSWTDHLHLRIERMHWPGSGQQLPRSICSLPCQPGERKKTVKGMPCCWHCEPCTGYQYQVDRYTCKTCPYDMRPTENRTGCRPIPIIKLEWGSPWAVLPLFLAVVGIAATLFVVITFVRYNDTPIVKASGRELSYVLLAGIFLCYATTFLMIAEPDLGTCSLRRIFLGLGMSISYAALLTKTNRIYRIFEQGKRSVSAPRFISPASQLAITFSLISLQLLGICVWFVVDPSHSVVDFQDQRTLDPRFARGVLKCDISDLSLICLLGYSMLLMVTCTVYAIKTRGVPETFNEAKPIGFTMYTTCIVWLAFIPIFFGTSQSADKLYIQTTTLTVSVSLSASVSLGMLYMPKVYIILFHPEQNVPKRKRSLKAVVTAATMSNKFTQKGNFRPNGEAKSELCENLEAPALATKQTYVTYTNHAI
Experiment: Positive allosteric modulation of human mGlu4 receptor expressed in CHO cells assessed as potentiation of glutamate-induced calcium mobilization relative to PHCCC
Type: functional, cell-based
reported-endpoint: Emax (%)

smiles-structure: O=C(Nc1ccc(S(=O)(=O)Nc2ccccc2Cl)c(Cl)c1)c1ccccn1
recorded-result: 102
--
smiles-structure: O=C(Nc1ccc(Cl)c(S(=O)(=O)Nc2ccccc2Cl)c1)c1ccccn1
recorded-result: 54.9
--
smiles-structure: O=C(Nc1ccc(S(=O)(=O)Nc2ccc(F)c(Cl)c2)cc1)c1ccccn1
recorded-result: 19.8
--
smiles-structure: COc1ccccc1NS(=O)(=O)c1ccc(NC(=O)c2ccccn2)cc1OC
recorded-result: 112
--
smiles-structure: O=C(Nc1ccc(S(=O)(=O)NC2CCC2)cc1)c1ccccn1
recorded-result: 64.4
--
smiles-structure: O=C(Nc1ccc(S(=O)(=O)Nc2cc(F)ccc2F)cc1)c1ccccn1
recorded-result: 87.6
--
smiles-structure: COc1cccc(C(=O)Nc2ccc(S(=O)(=O)Nc3ccccc3Cl)cc2)n1
recorded-result: 8.6

* * *

Target: Metabotropic glutamate receptor 4 (Homo sapiens, UniProt Q14833)
Experiment: Positive allosteric modulation of human mGlu4 receptor expressed in CHO cells assessed as potentiation of glutamate-induced calcium mobilization
Format: functional, cell-based
pEC50: −log10 of the molar value.
reported-endpoint: pEC50

smiles-structure: O=C(Nc1ccc(S(=O)(=O)NC2CC2)cc1)c1ccccn1
recorded-result: < 5.00
--
smiles-structure: COCCNS(=O)(=O)c1ccc(NC(=O)c2ccccn2)cc1
recorded-result: < 5.00
--
smiles-structure: O=C(Nc1ccc(S(=O)(=O)NC2CCC2)cc1)c1ccccn1
recorded-result: < 5.30
--
smiles-structure: O=C(Nc1ccc(S(=O)(=O)NCC2CC2)cc1)c1ccccn1
recorded-result: < 5.30

* * *

Molecular target: Metabotropic glutamate receptor 4 (Homo sapiens, UniProt Q14833)
Assay: Positive allosteric modulation of human mGlu4 receptor expressed in CHO cells assessed as potentiation of glutamate-induced calcium mobilization relative to PHCCC
Format: functional, cell-based

smiles-structure: CC1CCN(S(=O)(=O)c2ccc(NC(=O)c3ccccn3)cc2)CC1
target-system: Metabotropic glutamate receptor 4 (Homo sapiens, UniProt Q14833)
units-of-measure: %
Emax: 35.8

smiles-structure: O=C(Nc1ccc(CS(=O)(=O)c2ccccc2Cl)cc1)c1ccccn1
target-system: Metabotropic glutamate receptor 4 (Homo sapiens, UniProt Q14833)
units-of-measure: %
Emax: 46.5

smiles-structure: O=C(Nc1ccc(S(=O)(=O)Nc2ccccc2Cl)cc1)c1cccc(F)n1
target-system: Metabotropic glutamate receptor 4 (Homo sapiens, UniProt Q14833)
units-of-measure: %
Emax: 90

smiles-structure: Cc1cc(C)c(NS(=O)(=O)c2ccc(NC(=O)c3ccccn3)cc2)c(C)c1
target-system: Metabotropic glutamate receptor 4 (Homo sapiens, UniProt Q14833)
units-of-measure: %
Emax: 60.5
